# tested_on: Bcl-2-like protein 1 (Homo sapiens, UniProt Q07817)
# Sequence (Q07817 whole entry): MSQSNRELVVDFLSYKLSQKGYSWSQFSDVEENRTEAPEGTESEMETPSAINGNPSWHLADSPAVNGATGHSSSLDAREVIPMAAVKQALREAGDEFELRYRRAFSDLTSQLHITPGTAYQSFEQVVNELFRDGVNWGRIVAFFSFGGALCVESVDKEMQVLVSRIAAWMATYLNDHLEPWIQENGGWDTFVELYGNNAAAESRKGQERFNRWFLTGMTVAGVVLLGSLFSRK
readout_name: pKi
Entry type: numeric. Quantity: pKi, the -log10 of concentration in molar units.

Can you look up pKi on Bcl-2-like protein 1 (Homo sapiens, UniProt Q07817) for Cc1cccc(-c2ccc(C[C@@H]3NC(=O)N([C@@H](Cc4ccccc4)C(=O)NS(=O)(=O)c4ccc(Cl)c([N+](=O)[O-])c4)C3=O)cc2)c1 ?
5.33

---

Quick record of pKi values for UniProt:P10415.
Sequence (P10415 whole entry): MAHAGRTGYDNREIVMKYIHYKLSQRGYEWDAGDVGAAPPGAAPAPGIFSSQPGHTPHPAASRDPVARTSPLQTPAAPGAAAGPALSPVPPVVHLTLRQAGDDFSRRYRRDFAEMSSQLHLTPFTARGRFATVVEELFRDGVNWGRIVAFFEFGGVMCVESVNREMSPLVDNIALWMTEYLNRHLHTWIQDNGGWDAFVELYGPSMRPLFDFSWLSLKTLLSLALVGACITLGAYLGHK
pKi: −log10 of the molar value.

Cc1ccc(S(=O)(=O)NC(=O)[C@H](Cc2ccccc2)N2C(=O)N[C@@H](Cc3ccc(-c4cccc(C)c4)cc3)C2=O)cc1; 4.89

Which pKi value is on record for Cc1ccc(S(=O)(=O)NC(=O)[C@H](Cc2ccccc2)N2C(=O)N[C@@H](Cc3ccc(-c4ccc(Cl)cc4)cc3)C2=O)cc1 ?
< 4.30

Which pKi is listed for O=C(NS(=O)(=O)c1ccccc1)[C@H](Cc1ccccc1)N1C(=O)N[C@@H](Cc2ccc(-c3ccc(Cl)cc3)cc2)C1=O ?
4.72

// lookup pKi for Cc1cccc(-c2ccc(C[C@@H]3NC(=O)N([C@@H](Cc4ccccc4)C(=O)O)C3=O)cc2)c1
< 4.30

Requested field: pKi. Item: O=C(O)[C@H](Cc1ccccc1)N1C(=O)N[C@@H](Cc2ccc(Br)cc2)C1=O
< 4.30

Entry Cc1ccc(S(=O)(=O)NC(=O)[C@H](Cc2ccccc2)N2C(=O)N[C@@H](Cc3ccc(-c4ccnc(F)c4)cc3)C2=O)cc1 has what pKi?
< 4.30

May I ask what pKi has been recorded for O=C(NS(=O)(=O)c1ccc(Cl)c([N+](=O)[O-])c1)[C@H](Cc1ccccc1)N1C(=O)N[C@@H](Cc2ccc(Br)cc2)C1=O ?
< 4.30

---

# System: K562
# assay_comment: Cytotoxicity against human K562 cells assessed as inhibition of cell proliferation after 48 hrs by MTT assay
# Format: functional, cell-based
# condition_parameters: K562, 48 h
readout_name: pIC50
Please report pIC50 as the negative decimal logarithm of the molar concentration, giving only the number.

Past entries and their recorded results:
Cc1ccc(S(=O)(=O)NC(=O)[C@H](Cc2ccccc2)N2C(=O)/C(=C/c3ccc(-c4ccccc4)cc3)SC2=S)cc1; 4.35
O=Cc1ccc(-c2ccc(C[C@@H]3NC(=O)N([C@@H](Cc4ccccc4)C(=O)NS(=O)(=O)c4ccc(Cl)c([N+](=O)[O-])c4)C3=O)cc2)cc1; 4.16
O=C(NS(=O)(=O)c1cccc([N+](=O)[O-])c1)[C@H](Cc1ccccc1)N1C(=O)N[C@@H](Cc2ccc(-c3ccc(Cl)cc3)cc2)C1=O; 4.31
O=C(NS(=O)(=O)c1ccc(Cl)c([N+](=O)[O-])c1)[C@H](Cc1ccccc1)N1C(=O)N[C@@H](Cc2ccc(-c3ccc(Cl)cc3)cc2)C1=O; 4.40
Cc1cccc(-c2ccc(C[C@@H]3NC(=O)N([C@@H](Cc4ccccc4)C(=O)NS(=O)(=O)c4ccc(Cl)c([N+](=O)[O-])c4)C3=O)cc2)c1; 4.45

Lab request: please report pIC50 under test system K562 for Cc1ccc(S(=O)(=O)NC(=O)[C@H](Cc2ccccc2)N2C(=O)N[C@@H](Cc3ccc(-c4cccc(C)c4)cc3)C2=O)cc1
4.33

Values were extracted from ChEMBL document CHEMBL3627718.
